assayComment: Half life in ICR mouse at 1 mg/kg,iv measured upto 24 hrs by LC-MS analysis
Type: ADME, organism-based
experimentalConditions: in vivo
propertyLabel: half-life (h)
// return numeric value only (unit: h, not printed)

The measured half-life associated with Cc1cc(-c2c[nH]c3ncc(-c4ccc(C5CCN(C6CN(c7ccc8c(c7)C(=O)N(C7CCC(=O)NC7=O)C8=O)C6)CC5)cc4)nc23)ccc1C(=O)N(C)C (stereo unspecified) reads 3.13

* * *

assayComment: Metabolic stability in human liver microsomes assessed as intrinsic clearance
Type: ADME, Microsome
experimentalConditions: read-out: CLH
propertyLabel: microsomal CLint
Answer with the value and then the unit.

The measured microsomal CLint associated with Cc1cc(-c2c[nH]c3ncc(-c4ccc(C5CCN(C6CN(c7ccc8c(c7)C(=O)N(C7CCC(=O)NC7=O)C8=O)C6)CC5)cc4)nc23)ccc1C(=O)N(C)C (stereo unspecified) reads 1.4 µL/min/mg

* * *

assayTarget: Protein cereblon/Mitogen-activated protein kinase kinase kinase kinase 1 (Homo sapiens, UniProt Q92918+Q96SW2)
assayComment: PROTAC activity at CRBN/HPK1 in human Jurkat cells assessed as degradation of HPK1 protein incubated for 24 hrs by Western blotting analysis
Format: cell-based
Sequence (Q92918 whole entry): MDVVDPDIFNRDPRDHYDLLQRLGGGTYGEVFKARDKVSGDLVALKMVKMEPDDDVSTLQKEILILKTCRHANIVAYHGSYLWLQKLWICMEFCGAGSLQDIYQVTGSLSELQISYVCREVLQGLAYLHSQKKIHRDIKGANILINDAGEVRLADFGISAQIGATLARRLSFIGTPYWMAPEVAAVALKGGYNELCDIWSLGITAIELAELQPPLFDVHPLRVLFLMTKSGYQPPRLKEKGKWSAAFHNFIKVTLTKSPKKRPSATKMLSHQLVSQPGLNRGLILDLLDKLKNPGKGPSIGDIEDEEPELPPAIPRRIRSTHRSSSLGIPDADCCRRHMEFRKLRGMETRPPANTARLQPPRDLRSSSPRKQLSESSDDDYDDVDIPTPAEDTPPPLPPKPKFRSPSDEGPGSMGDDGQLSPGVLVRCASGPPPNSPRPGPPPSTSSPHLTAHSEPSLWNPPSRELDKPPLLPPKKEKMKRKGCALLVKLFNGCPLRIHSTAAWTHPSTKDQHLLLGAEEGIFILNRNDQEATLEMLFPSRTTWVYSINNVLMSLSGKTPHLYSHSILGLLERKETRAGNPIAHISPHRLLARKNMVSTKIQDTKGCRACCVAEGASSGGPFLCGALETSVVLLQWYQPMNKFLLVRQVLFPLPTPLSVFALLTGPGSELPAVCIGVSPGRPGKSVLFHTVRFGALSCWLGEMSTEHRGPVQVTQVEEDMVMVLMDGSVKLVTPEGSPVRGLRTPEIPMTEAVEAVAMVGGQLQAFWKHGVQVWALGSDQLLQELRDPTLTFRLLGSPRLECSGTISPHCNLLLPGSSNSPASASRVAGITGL
Sequence (Q96SW2 whole entry): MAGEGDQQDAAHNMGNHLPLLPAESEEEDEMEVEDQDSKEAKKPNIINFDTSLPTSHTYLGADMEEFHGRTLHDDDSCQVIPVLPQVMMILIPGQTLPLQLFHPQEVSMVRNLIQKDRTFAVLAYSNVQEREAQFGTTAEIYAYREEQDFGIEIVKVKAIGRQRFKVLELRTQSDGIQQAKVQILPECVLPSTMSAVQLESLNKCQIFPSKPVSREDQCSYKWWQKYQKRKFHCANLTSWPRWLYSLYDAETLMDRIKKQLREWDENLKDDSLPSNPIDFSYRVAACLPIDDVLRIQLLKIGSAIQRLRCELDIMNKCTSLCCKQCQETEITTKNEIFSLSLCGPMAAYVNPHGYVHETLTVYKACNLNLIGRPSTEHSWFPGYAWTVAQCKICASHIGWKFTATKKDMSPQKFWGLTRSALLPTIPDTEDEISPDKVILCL
Please respond with reported DC50 for every item in the list.
// return numeric value only (unit: nM, not printed)

The measured DC50 associated with Cc1cc(-c2c[nH]c3ncc(-c4ccc(C5CCN(CC6CCN(c7ccc8c(c7)C(=O)N(C7CCC(=O)NC7=O)C8=O)CC6)CC5)cc4)nc23)ccc1C(=O)N(C)C (stereo unspecified) reads 420

The measured DC50 associated with Cc1cc(-c2c[nH]c3ncc(-c4ccc(C5CCN(C6CN(c7cccc8c7C(=O)N(C7CCC(=O)NC7=O)C8=O)C6)CC5)cc4)nc23)ccc1C(=O)N(C)C (stereo unspecified) reads 152

The measured DC50 associated with Cc1cc(-c2c[nH]c3ncc(-c4ccc(N5CCN(C6CN(c7ccc8c(c7)C(=O)N(C7CCC(=O)NC7=O)C8=O)C6)CC5)cc4)nc23)ccc1C(=O)N(C)C (stereo unspecified) reads 28.2

* * *

assayTarget: Protein cereblon/Mitogen-activated protein kinase kinase kinase kinase 1 (Homo sapiens, UniProt Q92918+Q96SW2)
assayComment: PROTAC activity at CRBN/HPK1 in human Jurkat cells assessed as degradation of HPK1 protein incubated for 24 hrs by Western blotting analysis
Assay type: cell-based
propertyLabel: DC50 (nM)
// return numeric value only (unit: nM, not printed)

The measured DC50 associated with Cc1cc(-c2c[nH]c3ncc(-c4ccc(C5CCN(C6CN(CC7CCN(c8ccc(N9CCC(=O)NC9=O)c(C)c8)CC7)C6)CC5)cc4)nc23)ccc1C(=O)N(C)C reads 127

The measured DC50 associated with Cc1cc(-c2c[nH]c3ncc(-c4ccc(C5CCN(C6CN(c7cc8c(cc7F)C(=O)N(C7CCC(=O)NC7=O)C8=O)C6)CC5)cc4)nc23)ccc1C(=O)N(C)C (stereo unspecified) reads 78.8

The measured DC50 associated with Cc1cc(-c2c[nH]c3ncc(-c4ccc(C5CCN(CCC6CCN(c7ccc8c(c7)C(=O)N(C7CCC(=O)NC7=O)C8=O)CC6)CC5)cc4)nc23)ccc1C(=O)N(C)C (stereo unspecified) reads 1060

* * *

assayTarget: Protein cereblon/Mitogen-activated protein kinase kinase kinase kinase 1 (Homo sapiens, UniProt Q92918+Q96SW2)
assayComment: PROTAC activity at CRBN/HPK1 in human Jurkat cells assessed as maximal degradation of HPK1 protein incubated for 24 hrs by Western blotting analysis relative to control
Assay type: cell-based
Sequence (Q92918 whole entry, looked up): as the sequence (Q92918 whole entry) above
Sequence (Q96SW2 whole entry, looked up): as the sequence (Q96SW2 whole entry) above
I would appreciate it if you labelled entries rule met when Emax is 70% or higher, otherwise rule not met.

Input line: Determine whether measured Emax meets or exceeds 70% for Cc1cc(-c2c[nH]c3ncc(-c4ccc(C5CCN(CCC6CCN(c7ccc8c(c7)C(=O)N(C7CCC(=O)NC7=O)C8=O)CC6)CC5)cc4)nc23)ccc1C(=O)N(C)C (stereo not given)
Output line: rule not met

Input line: Determine whether measured Emax meets or exceeds 70% for Cc1cc(-c2c[nH]c3ncc(-c4ccc(C5CCN(C6CN(c7ccc8c(c7)C(=O)N(C7CCC(=O)NC7=O)C8=O)C6)CC5)cc4)nc23)ccc1C(=O)N(C)C (stereo not given)
Output line: rule met

Input line: Determine whether measured Emax meets or exceeds 70% for Cc1cc(-c2c[nH]c3ncc(-c4ccc(C5CCN(C6CN(C(=O)C7CN(c8ccc9c(c8)C(=O)N(C8CCC(=O)NC8=O)C9=O)C7)C6)CC5)cc4)nc23)ccc1C(=O)N(C)C (stereo not given)
Output line: rule not met

Input line: Determine whether measured Emax meets or exceeds 70% for Cc1cc(-c2c[nH]c3ncc(-c4ccc(C5CCN(C(=O)CNc6cccc7c6C(=O)N(C6CCC(=O)NC6=O)C7=O)CC5)cc4)nc23)ccc1C(=O)N(C)C (stereo not given)
Output line: rule not met
